outcome_measure: melting point

[[record]]
structure_notation = "Cc1cnc2c(C#N)c(-c3ccc(S(=O)(=O)N[C@H](C)C(F)(F)F)cc3)n(C3CCCC3)c2c1"
meas_value = "281 to 283 °C"

[[record]]
structure_notation = "CC1(NS(=O)(=O)c2ccc(-c3c(C#N)c4cnc(Cl)cc4n3C3CCC3)nc2)CC1"
meas_value = "167 to 168 °C"

[[record]]
structure_notation = "CCc1cnc2c(c1)c(C(N)=O)c(-c1ccc(S(=O)(=O)NC(C)(C)C(F)(F)F)cc1)n2C1CCC1"
meas_value = "185 to 193 °C"

[[record]]
structure_notation = "C[C@@H](NS(=O)(=O)c1ccc(-c2c(C#N)c3cc(C(F)(F)F)cnc3n2C2CCCCC2)cc1)C(F)(F)F"
meas_value = "185 to 187 °C"

[[record]]
structure_notation = "CC1(NS(=O)(=O)c2ccc(-c3c(C#N)c4cc(C5CC5)cnc4n3C3CCC3)nc2)CC1"
meas_value = "178 to 185 °C"

[[record]]
structure_notation = "CC(C)(C)NS(=O)(=O)c1ccc(-c2c(C(N)=O)c3cc(C(F)(F)F)cnc3n2-c2ccccc2)nc1"
meas_value = "241.8 to 243 °C"

[[record]]
structure_notation = "Cc1cnc2c(C#N)c(-c3ncc(S(=O)(=O)NC(CF)CF)cn3)n(C3CCCC3)c2c1"
meas_value = "256 to 258 °C"

[[record]]
structure_notation = "CC(C)NS(=O)(=O)c1ccc(-c2c(C#N)c3cc(C(F)(F)F)cnc3n2C2CCC2)nc1"
meas_value = "186 to 187 °C"

